# assay_method_text: Phase 1 clinical study, 7 day QID topical dosing
# Assay type: in vivo, human
# conditions_used: human, plasma, topical; 0.5% NS2, 7 day QID dosing; detection limit; each subject; read-out: plasma levels of NS2
parameter_measured: concentration at 7 day

INPUT: Given the compound CC(C)(O)c1nc2ccc(Cl)cc2cc1N , what is its reported concentration at 7 day?
OUTPUT: < 5 ng/mL

----------
# assay_method_text: in vivo
# conditions_used: primates
parameter_measured: concentration at 3 h (nM)
Please give a number only; it is taken to be in nM.

INPUT: Given the compound CC(C)(O)c1nc2ccc(Cl)cc2cc1N , what is its reported concentration at 3 h?
OUTPUT: 1200
